molecular target: human α7 nAChRs (Homo sapiens, UniProt P36544); assay: biochemical; assay type: binding
Sequence (P36544 23-502): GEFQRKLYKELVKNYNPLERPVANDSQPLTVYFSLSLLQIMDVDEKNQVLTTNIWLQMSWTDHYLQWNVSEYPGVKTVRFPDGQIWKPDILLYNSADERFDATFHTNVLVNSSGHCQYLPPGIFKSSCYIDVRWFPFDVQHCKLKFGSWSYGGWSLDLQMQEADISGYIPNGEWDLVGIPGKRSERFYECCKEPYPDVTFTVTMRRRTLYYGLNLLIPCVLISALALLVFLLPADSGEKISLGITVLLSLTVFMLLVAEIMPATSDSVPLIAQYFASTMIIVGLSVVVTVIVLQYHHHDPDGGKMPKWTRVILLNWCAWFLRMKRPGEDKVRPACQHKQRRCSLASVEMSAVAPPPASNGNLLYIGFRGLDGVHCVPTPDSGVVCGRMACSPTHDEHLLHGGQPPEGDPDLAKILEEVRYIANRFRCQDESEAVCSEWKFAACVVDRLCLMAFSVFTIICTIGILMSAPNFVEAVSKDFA
pKi: −log10 of the molar value.
Experimental readout: pKi

| Smiles notation | Result value |
| --- | --- |
| OCCCCC#Cc1cncc(OC[C@@H]2CCN2)c1 | 5.48 |

* * *

Recorded pKi, one value per entry.
molecular target: muscle nAChRs (Homo sapiens, UniProt P02708+P07510+Q07001); assay: biochemical
Sequence (P07510 23-517): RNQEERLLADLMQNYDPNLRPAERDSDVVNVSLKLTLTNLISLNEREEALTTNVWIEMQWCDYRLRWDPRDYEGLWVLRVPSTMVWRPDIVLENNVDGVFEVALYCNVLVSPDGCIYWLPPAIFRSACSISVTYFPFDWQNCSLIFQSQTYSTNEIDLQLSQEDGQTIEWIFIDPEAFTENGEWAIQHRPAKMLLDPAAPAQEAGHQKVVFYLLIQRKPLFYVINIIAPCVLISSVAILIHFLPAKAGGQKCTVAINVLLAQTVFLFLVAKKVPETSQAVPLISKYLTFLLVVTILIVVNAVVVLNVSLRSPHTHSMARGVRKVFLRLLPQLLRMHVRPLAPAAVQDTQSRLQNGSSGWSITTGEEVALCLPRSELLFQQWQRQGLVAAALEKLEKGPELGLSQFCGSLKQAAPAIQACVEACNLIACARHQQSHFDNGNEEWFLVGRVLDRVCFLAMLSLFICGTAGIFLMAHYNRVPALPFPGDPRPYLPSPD
Sequence (Q07001 22-517): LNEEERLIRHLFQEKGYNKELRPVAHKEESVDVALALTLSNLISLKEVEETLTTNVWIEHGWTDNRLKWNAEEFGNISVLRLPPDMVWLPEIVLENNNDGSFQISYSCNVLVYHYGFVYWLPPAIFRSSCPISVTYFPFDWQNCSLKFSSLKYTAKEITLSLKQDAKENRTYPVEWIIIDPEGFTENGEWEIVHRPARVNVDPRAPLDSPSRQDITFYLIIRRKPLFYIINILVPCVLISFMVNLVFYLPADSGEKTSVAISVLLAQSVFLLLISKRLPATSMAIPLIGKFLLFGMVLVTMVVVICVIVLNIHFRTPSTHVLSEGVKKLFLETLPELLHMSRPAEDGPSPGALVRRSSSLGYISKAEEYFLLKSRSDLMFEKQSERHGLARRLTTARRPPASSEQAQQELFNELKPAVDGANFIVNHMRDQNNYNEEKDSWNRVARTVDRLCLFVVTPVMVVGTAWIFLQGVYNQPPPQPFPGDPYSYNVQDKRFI
Sequence (P11230 24-501, further chain): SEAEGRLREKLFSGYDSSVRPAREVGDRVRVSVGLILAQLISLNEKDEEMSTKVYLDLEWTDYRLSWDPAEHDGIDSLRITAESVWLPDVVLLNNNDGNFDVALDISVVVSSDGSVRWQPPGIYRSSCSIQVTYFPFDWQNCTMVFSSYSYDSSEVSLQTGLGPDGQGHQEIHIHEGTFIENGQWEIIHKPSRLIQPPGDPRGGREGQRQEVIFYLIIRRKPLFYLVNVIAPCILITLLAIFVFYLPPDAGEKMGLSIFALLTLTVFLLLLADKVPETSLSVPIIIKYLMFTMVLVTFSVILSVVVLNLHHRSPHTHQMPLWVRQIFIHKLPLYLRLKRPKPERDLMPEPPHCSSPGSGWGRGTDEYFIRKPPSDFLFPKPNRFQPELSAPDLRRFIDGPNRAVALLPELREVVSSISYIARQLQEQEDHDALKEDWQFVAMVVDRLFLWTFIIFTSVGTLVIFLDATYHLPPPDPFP
Sequence (P02708 21-457): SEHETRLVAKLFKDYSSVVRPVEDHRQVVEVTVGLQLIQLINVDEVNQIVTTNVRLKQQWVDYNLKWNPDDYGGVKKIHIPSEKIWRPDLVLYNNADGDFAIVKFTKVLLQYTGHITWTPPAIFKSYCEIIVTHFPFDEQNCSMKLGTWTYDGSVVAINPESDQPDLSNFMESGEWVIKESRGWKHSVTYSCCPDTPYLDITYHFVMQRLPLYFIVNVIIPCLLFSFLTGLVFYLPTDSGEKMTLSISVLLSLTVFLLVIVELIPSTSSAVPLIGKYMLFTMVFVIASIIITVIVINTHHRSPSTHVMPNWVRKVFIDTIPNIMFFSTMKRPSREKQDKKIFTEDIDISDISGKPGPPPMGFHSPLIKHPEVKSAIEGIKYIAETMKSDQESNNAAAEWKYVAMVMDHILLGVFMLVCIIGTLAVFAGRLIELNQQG
pKi: −log10 of the molar value.

| Smiles notation | Tested target | pKi |
| --- | --- | --- |
| OCCCCC#Cc1cncc(OC[C@@H]2CCN2)c1 | muscle nAChRs (Homo sapiens, UniProt P02708+P07510+Q07001) | 6.74 |
| CN1CCC[C@H]1c1cccnc1 | muscle nAChRs (Homo sapiens, UniProt P02708+P07510+Q07001) | 5.46 |

Hey, just so you know, these numbers are from paper PMC3685407.
